target: UniProt:P27338; assay: Inhibition of human MAO-B
# key: entry, value: IC50

Take a look at these entries with their results.
[
  {
    "sample smiles": "O=C(/C=C/c1cccc2c1OCO2)c1cccc(Cl)c1",
    "reported endpoint": "IC50",
    "experimental value": "< 100 nM"
  },
  {
    "sample smiles": "O=C(/C=C/c1cccc2c1OCO2)c1ccc(Br)cc1",
    "reported endpoint": "IC50",
    "experimental value": "< 100 nM"
  },
  {
    "sample smiles": "O=C(/C=C/c1cccc2c1OCO2)c1ccc(Cl)cc1",
    "reported endpoint": "IC50",
    "experimental value": "< 100 nM"
  },
  {
    "sample smiles": "Cc1ccc(/C=C/C(=O)c2ccc3c(c2)OCCO3)cc1",
    "reported endpoint": "IC50",
    "experimental value": "3.4 nM"
  }
]

Query: May I ask what IC50 has been recorded for "O=C(/C=C/c1cccc2c1OCO2)c1cccc(Br)c1" ?
Result: < 100 nM

###

species on record: Homo sapiens; test: Selectivity index, ratio of IC50 for human MAO-A to IC50 for human MAO-B
reported endpoint: Ratio IC50
Output: the number by itself.

Take a look at these entries with their results.
[
  {
    "sample smiles": "COc1ccc2c(=O)cc(-n3cncn3)oc2c1",
    "experimental value": 8
  },
  {
    "sample smiles": "O=C(/C=C/c1ccc(Cl)cc1)c1ccccc1",
    "experimental value": 56
  },
  {
    "sample smiles": "O=C(/C=C/C=C/c1ccccc1)c1ccco1",
    "experimental value": 172
  },
  {
    "sample smiles": "O=C(/C=C/c1ccc(Br)cc1)c1ccc(-n2ccnc2)cc1",
    "experimental value": 3.3
  },
  {
    "sample smiles": "CCc1ccc(/C=C/C(=O)c2ccc(-n3ccnc3)cc2)cc1",
    "experimental value": 3.3
  },
  {
    "sample smiles": "Cc1ccc(/C=C/C(=O)c2ccc(-n3ccnc3)cc2)cc1",
    "experimental value": 3.3
  }
]

Pending compound:
Query: May I ask what Ratio IC50 has been recorded for "O=C(/C=C/c1ccc(Br)cc1)c1c[nH]c2ccccc12" ?
Result: 120

###

Biological target: UniProt:P27338
Sequence (P27338 whole entry): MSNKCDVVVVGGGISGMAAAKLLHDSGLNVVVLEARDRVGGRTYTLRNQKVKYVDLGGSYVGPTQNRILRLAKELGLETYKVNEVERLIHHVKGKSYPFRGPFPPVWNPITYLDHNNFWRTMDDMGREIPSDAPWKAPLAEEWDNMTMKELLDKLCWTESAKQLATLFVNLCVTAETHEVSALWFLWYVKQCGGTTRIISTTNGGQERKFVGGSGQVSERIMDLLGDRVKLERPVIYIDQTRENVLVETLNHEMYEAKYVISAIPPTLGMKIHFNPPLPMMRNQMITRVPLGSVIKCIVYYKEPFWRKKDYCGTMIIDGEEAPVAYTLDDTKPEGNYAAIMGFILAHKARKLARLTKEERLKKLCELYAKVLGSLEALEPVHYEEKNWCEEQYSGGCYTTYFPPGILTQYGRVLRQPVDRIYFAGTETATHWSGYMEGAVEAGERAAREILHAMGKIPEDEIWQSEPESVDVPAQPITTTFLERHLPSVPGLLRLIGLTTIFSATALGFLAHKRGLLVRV
Assay: Binding affinity to human MAO-B using p-tyramine as substrate incubated for 15 mins by amplex red dye based microplate assay
reported endpoint: pKi
The read-out pKi is expressed as -log10 of concentration in moles per litre.

Take a look at these entries with their results.
[
  {
    "sample smiles": "O=C(/C=C/c1csc2ccccc12)c1ccco1",
    "system tested": "UniProt:P27338",
    "pKi": 7.14
  },
  {
    "sample smiles": "O=C(/C=C/C=C/c1ccccc1)c1ccco1",
    "system tested": "UniProt:P27338",
    "pKi": 8.39
  }
]

Pending compound:
Query: May I ask what pKi has been recorded for "O=C(/C=C/c1ccc(Br)cc1)c1c[nH]c2ccccc12" ?
Result: 8.00

###

# key: entry, value: IC50
target: Amine oxidase [flavin-containing] A (Homo sapiens, UniProt P21397); assay: Inhibition of human MAO-A using kynuramine as substrate incubated for 20 mins by fluorescence based assay relative to control
Sequence (P21397 whole entry): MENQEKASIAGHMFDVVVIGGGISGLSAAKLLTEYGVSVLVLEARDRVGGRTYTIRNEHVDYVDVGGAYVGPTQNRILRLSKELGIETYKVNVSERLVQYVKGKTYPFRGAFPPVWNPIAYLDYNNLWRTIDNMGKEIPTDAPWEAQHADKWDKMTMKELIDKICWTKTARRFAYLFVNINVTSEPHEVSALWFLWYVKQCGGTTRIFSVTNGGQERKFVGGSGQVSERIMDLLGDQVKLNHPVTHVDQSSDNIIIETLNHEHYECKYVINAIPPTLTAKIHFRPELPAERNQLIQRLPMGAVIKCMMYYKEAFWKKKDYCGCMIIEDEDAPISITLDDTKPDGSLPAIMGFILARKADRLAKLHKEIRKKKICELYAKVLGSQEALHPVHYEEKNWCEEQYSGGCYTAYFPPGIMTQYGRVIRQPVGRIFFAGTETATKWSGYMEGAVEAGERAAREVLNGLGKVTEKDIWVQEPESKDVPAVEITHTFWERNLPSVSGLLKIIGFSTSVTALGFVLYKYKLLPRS

Query: May I ask what IC50 has been recorded for "COc1ccc(C(=O)/C=C/c2ccc(O)cc2)c(O)c1CC=C(C)C" ?
Result: > 40 µM

Query: May I ask what IC50 has been recorded for "COc1cc(O)c(C(=O)/C=C/c2ccccc2O)c(OC)c1" ?
Result: 0.39 µM

Query: May I ask what IC50 has been recorded for "COc1cc(O)ccc1C(=O)/C=C/c1ccc(O)cc1" ?
Result: 10.1 µM

Query: May I ask what IC50 has been recorded for "CC(C)=CCC/C(C)=C/Cc1c(O)ccc(C(=O)/C=C/c2ccc(O)cc2)c1O" ?
Result: > 40 µM

Query: May I ask what IC50 has been recorded for "CC(C)=CCc1cc(C(=O)/C=C/c2ccc(O)c(O)c2)c(O)cc1O" ?
Result: 0.72 µM

###

target: Amine oxidase [flavin-containing] B (Homo sapiens, UniProt P27338); test: Binding affinity to human MAO-B using kynuramine as substrate incubated for 30 mins by absorbance based assay
reported endpoint: Ki
Could you write the number and then its unit?

Take a look at these entries with their results.
[
  {
    "sample smiles": "O=C(/C=C/c1ccc(Cl)cc1Cl)c1ccco1",
    "system tested": "Amine oxidase [flavin-containing] B (Homo sapiens, UniProt P27338)",
    "Ki": "850 nM"
  },
  {
    "sample smiles": "O=C(/C=C/c1ccc(O)c(O)c1O)c1ccco1",
    "system tested": "Amine oxidase [flavin-containing] B (Homo sapiens, UniProt P27338)",
    "Ki": "3550 nM"
  }
]

Pending compound:
Query: May I ask what Ki has been recorded for "COC(=O)c1ccc(/C=C/C(=O)c2ccco2)cc1" ?
Result: 300 nM

###

species on record: Homo sapiens; assay: Selectivity index, ratio of IC50 for human MAO-A to IC50 for human MAO-B by fluorescence based assay
reported endpoint: Ratio IC50

Take a look at these entries with their results.
[
  {
    "sample smiles": "COc1ccc(C(=O)/C=C/c2ccc(O)cc2)c(O)c1CC=C(C)C",
    "Ratio IC50": "> 28.8"
  },
  {
    "sample smiles": "CC(C)=CCc1cc(C(=O)/C=C/c2ccc(O)c(O)c2)c(O)cc1O",
    "Ratio IC50": 0.1
  },
  {
    "sample smiles": "COc1cc(O)c(C(=O)/C=C/c2ccccc2O)c(OC)c1",
    "Ratio IC50": 0.14
  },
  {
    "sample smiles": "COc1cc(O)c(C(=O)/C=C/c2ccccc2)c(O)c1",
    "Ratio IC50": 0.63
  },
  {
    "sample smiles": "CC(C)=CCC/C(C)=C/Cc1c(O)ccc(C(=O)/C=C/c2ccc(O)cc2)c1O",
    "Ratio IC50": "> 3.03"
  }
]

Pending molecule:
Query: May I ask what Ratio IC50 has been recorded for "COc1cc(O)ccc1C(=O)/C=C/c1ccc(O)cc1" ?
Result: 9.9

###

# key: entry, value: IC50
molecular target: Amine oxidase [flavin-containing] B (Homo sapiens, UniProt P27338); assay: Inhibition of human MAO-B using kynuramine as substrate incubated for 20 mins by fluorescence based assay

[
  {
    "sample smiles": "O=C1/C(=C/c2ccccn2)Cc2ccccc21",
    "experimental value": "> 1000 nM"
  },
  {
    "sample smiles": "COc1ccc2c(c1)C/C(=C\\c1cccnc1)C2=O",
    "experimental value": "< 500 nM"
  },
  {
    "sample smiles": "O=C(/C=C/c1ccc(F)cc1)c1ccc2c(c1)OCO2",
    "experimental value": "< 100 nM"
  },
  {
    "sample smiles": "O=C(/C=C/c1ccc(F)cc1)c1ccc2c(c1)OCCO2",
    "experimental value": "< 100 nM"
  }
]

Query: May I ask what IC50 has been recorded for "COc1ccc2c(c1)C/C(=C\c1ccccn1)C2=O" ?
Result: < 500 nM

Query: May I ask what IC50 has been recorded for "O=C1/C(=C/c2cccnc2)Cc2ccccc21" ?
Result: < 500 nM

###

# key: entry, value: pIC50
target: Amine oxidase [flavin-containing] B (Homo sapiens, UniProt P27338); assay: Inhibition of human MAO-B by fluorescence spectrophotometry assay
The read-out pIC50 is expressed as -log10 of concentration in moles per litre.

Take a look at these entries with their results.
[
  {
    "sample smiles": "Cc1ccc(NC(=O)CCc2cn(Cc3ccc4oc(-c5ccc(Cl)cc5)cc(=O)c4c3)nn2)cc1",
    "system tested": "Amine oxidase [flavin-containing] B (Homo sapiens, UniProt P27338)",
    "pIC50": 4.48
  },
  {
    "sample smiles": "O=C(NCc1cnnn1Cc1ccc2oc(-c3ccc(Cl)cc3)cc(=O)c2c1)c1ccccc1",
    "system tested": "Amine oxidase [flavin-containing] B (Homo sapiens, UniProt P27338)",
    "pIC50": 4.48
  }
]

Query: # query: pIC50 | item "O=C(NCc1cn(Cc2ccc3oc(-c4ccc(Cl)cc4)cc(=O)c3c2)nn1)c1ccc(Cl)cc1" | system: Amine oxidase [flavin-containing] B (Homo sapiens, UniProt P27338)
Result: 4.48

Source of measurements: ChEMBL document CHEMBL5230117
